- TESTED_ON: mouse TMEM16A mutant I636A (Mus musculus, UniProt Q8BHY3, I636A)
- Construct: expressed in transfected cells; host or cells: HEK293T
- Sequence (Q8BHY3 1-960 I636A): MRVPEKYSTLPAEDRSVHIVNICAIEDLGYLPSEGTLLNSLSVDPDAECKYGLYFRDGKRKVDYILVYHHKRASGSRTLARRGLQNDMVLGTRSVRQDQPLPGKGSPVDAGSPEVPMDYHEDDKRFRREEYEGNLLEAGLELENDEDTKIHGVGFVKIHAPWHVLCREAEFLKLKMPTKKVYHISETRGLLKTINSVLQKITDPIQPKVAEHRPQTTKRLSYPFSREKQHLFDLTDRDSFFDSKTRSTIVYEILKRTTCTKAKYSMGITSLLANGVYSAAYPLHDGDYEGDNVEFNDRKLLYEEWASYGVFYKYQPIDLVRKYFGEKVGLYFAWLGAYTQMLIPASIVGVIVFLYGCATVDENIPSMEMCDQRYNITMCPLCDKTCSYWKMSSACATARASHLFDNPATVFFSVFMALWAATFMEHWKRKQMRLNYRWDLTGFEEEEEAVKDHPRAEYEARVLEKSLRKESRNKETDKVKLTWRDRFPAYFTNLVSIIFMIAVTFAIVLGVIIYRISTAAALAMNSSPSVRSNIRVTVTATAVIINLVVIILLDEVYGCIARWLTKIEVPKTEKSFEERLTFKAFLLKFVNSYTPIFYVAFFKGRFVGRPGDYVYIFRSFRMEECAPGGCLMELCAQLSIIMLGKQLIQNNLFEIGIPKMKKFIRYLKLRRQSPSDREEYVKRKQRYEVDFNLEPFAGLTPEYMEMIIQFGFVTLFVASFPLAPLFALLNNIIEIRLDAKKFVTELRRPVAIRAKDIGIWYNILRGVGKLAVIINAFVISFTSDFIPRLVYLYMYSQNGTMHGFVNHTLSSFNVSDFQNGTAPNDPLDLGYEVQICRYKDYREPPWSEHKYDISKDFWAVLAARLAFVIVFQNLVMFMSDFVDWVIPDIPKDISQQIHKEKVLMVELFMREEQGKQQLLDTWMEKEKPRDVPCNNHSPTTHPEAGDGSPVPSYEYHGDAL
- EXPERIMENTAL_PROTOCOL: Inside-out patch recording of 1PBC block, mutant I636A
- Type: cell-based
- CONDITION_SET: 60 mV; 15 µM Ca2+
RECORDED_ENDPOINT: IC50 (µM)
Respond numerically; units are µM and should not be typed.

Q: Give a short answer stating reported IC50 for N#Cc1c(C(F)(F)F)cc(O)n2c1nc1ccccc12 .
Result: 4.03
